Can you tell me pIC50 for the items I'm about to list?
pIC50: −log10 of the molar value.

Give recorded pIC50 with HDAC5 (Homo sapiens (Human)) for the following molecule: Fc1ccc(C(CC(F)(F)F)Nc2ncc(-c3nnc(C(F)F)o3)cn2)cc1 (stereo not drawn) < 4.52

Give recorded pIC50 with HDAC5 (Homo sapiens (Human)) for the following molecule: CS(=O)(=O)NCC(Nc1ncc(-c2nnc(C(F)F)o2)cn1)c1ccc(OC(F)(F)F)cc1 (single isomer, unassigned) [122(+)] < 4.52

Give recorded pIC50 with HDAC5 (Homo sapiens (Human)) for the following molecule: Fc1cccc(F)c1C1(Nc2ncc(-c3nnc(C(F)F)o3)cn2)CC1 < 4.52

* * *

assay.system: HDAC6 (Homo sapiens (Human), UniProt Q9UBN7)
Sequence (Q9UBN7 whole entry): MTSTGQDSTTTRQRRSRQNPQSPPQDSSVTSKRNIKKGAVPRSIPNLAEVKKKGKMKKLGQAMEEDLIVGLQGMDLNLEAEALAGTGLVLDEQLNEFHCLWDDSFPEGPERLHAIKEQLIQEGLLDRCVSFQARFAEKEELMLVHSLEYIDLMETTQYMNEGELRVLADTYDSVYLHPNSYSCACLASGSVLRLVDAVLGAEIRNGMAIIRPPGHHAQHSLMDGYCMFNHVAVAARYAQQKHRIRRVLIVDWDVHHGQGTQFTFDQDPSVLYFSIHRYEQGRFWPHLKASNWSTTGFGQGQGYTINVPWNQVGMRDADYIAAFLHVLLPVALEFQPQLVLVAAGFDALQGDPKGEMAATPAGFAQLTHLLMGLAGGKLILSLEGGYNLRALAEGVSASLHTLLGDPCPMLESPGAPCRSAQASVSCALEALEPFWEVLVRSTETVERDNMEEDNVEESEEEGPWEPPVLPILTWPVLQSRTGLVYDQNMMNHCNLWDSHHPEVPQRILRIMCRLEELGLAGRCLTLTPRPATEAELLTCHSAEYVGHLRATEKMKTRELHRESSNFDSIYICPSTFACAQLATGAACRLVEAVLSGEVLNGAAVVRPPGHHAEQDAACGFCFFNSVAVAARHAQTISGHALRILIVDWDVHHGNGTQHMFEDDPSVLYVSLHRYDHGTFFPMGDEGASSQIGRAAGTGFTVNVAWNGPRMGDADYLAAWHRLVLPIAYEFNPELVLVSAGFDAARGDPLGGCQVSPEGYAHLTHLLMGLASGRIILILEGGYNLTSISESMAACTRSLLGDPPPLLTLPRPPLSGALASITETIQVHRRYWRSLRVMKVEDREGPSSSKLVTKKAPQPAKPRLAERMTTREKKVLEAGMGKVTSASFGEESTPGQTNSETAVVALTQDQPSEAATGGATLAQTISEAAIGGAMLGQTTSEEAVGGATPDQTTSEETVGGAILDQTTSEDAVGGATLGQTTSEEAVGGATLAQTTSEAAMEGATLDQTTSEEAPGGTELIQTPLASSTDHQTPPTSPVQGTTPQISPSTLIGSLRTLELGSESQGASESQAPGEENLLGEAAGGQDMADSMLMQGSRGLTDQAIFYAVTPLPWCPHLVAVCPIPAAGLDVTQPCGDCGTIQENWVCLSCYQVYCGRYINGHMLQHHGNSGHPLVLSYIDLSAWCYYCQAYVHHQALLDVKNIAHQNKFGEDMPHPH
test.details: HDAC6 enzymatic assay
Format: biochemical
stated.conditions: read-out: Human HDAC6 IC50
Lab note: anything with IC50 below 200 nM is marked met; values at 200 nM or higher are marked not met.

Please check: IC50 for CN(c1ncc(-c2nnc(C(F)F)o2)cn1)C1(c2ccc(F)cc2)CC1 [Example 8] , strictly under 200 nM or not? not met

Please check: IC50 for CS(=O)(=O)Nc1ccccc1C(Nc1ncc(-c2nnc(C(F)F)o2)cn1)c1ccc(F)cc1 (centres unmarked) [Example 130] , strictly under 200 nM or not? met

Please check: IC50 for CCC(Nc1ncc(-c2nnc(C(F)F)o2)cn1)c1ccc(F)cc1 (centres unmarked) [Example 22] , strictly under 200 nM or not? met

Please check: IC50 for CS(=O)(=O)NCC(Nc1ncc(-c2nnc(C(F)F)o2)cn1)c1ccc(OC(F)(F)F)cc1 (single isomer, unassigned) [122(−)] , strictly under 200 nM or not? not met

Please check: IC50 for CC(Nc1ncc(-c2nnc(C(F)F)o2)cn1)c1ccc(F)cc1 (single isomer, unassigned; (-)) [20(−)] , strictly under 200 nM or not? not met

Please check: IC50 for CCS(=O)(=O)N(CC(Nc1ncc(-c2nnc(C(F)F)o2)cn1)c1ccc(OC(F)(F)F)cc1)CC(F)(F)F (stereo not drawn) [157(+)] , strictly under 200 nM or not? not met

Please check: IC50 for FC(F)c1nnc(-c2cnc(NC3(c4cc(C(F)(F)F)ccc4Cl)CC3)nc2)o1 [Example 81] , strictly under 200 nM or not? not met

Please check: IC50 for FC(F)c1nnc(-c2cnc(NC3(c4cccc(OCC(F)(F)F)c4Cl)CC3)nc2)o1 [Example 87] , strictly under 200 nM or not? met

* * *

Can you tell me pIC50 for the items I'm about to list?
assay.system: HDAC6 (Homo sapiens (Human))
test.details: HDAC6 enzymatic assay
Type: biochemical
stated.conditions: read-out: Human HDAC6 IC50
Please treat pIC50 as minus the base-10 logarithm of the molar concentration.

So what does the record say about pIC50 for FC(F)c1nnc(-c2cnc(NC3(c4ccc(C(F)(F)F)cc4)CC3)nc2)o1 ? 7.19

So what does the record say about pIC50 for Fc1ccc(Cl)cc1C1(Nc2ncc(-c3nnc(C(F)F)o3)cn2)CC1 ? 7.85

So what does the record say about pIC50 for Fc1ccc(-c2cccc(C3(Nc4ncc(-c5nnc(C(F)F)o5)cn4)CC3)c2)cc1 ? 7.24

So what does the record say about pIC50 for Fc1ccc(C(Nc2ncc(-c3nnc(C(F)F)o3)cn2)C2CC2)cc1 (stereo not shown) ? 7.19

So what does the record say about pIC50 for Fc1ccc2c(c1)CCC2Nc1ncc(-c2nnc(C(F)F)o2)cn1 (stereo not shown) ? 6.35

So what does the record say about pIC50 for COc1cc(F)c(C2(Nc3ncc(-c4nnc(C(F)F)o4)cn3)CC2)c(F)c1 ? 7.80

So what does the record say about pIC50 for COc1cccc(C2(Nc3ncc(-c4nnc(C(F)(F)F)o4)cn3)CC2)c1 ? 6.60

So what does the record say about pIC50 for Fc1ccc(C(COC2CC2)Nc2ncc(-c3nnc(C(F)F)o3)cn2)c(F)c1 (single isomer, unassigned) [Example 134A] ? 6.66

So what does the record say about pIC50 for Fc1ccc(C(CC(F)(F)F)Nc2ncc(-c3nnc(C(F)F)o3)cn2)c(F)c1 (single isomer, unassigned) [101(−)] ? 6.15

So what does the record say about pIC50 for CS(=O)(=O)NCC(Nc1ncc(-c2nnc(C(F)F)o2)cn1)c1ccc(F)cc1 (single isomer, unassigned) [38(−)] ? 6.49

So what does the record say about pIC50 for CC(=O)N1CCC(Nc2ncc(-c3nnc(C(F)F)o3)cn2)(c2ccc(F)cc2)CC1 ? 6.85

So what does the record say about pIC50 for O=S(=O)(NCC(Nc1ncc(-c2nnc(C(F)F)o2)cn1)c1ccc(OC(F)F)cc1F)C1CC1 (stereo not drawn) [150(+)] ? 7.64

So what does the record say about pIC50 for CN(CC(Nc1ncc(-c2nnc(C(F)F)o2)cn1)c1ccc(OC(F)(F)F)cc1)S(C)(=O)=O (stereo not drawn) [153(+)] ? 7.70

* * *

assay.system: HDAC6 (Homo sapiens (Human), UniProt Q9UBN7)
test.details: HDAC6 enzymatic assay
Assay type: biochemical
stated.conditions: read-out: Human HDAC6 IC50
Lab note: anything with IC50 below 30 nM is marked yes (1); values at 30 nM or higher are marked no (0).

Please check: IC50 for CCS(=O)(=O)N(CC(Nc1ncc(-c2nnc(C(F)F)o2)cn1)c1ccc(F)cc1)CC(F)(F)F (single isomer, unassigned) [164(+)] , strictly under 30 nM or not? no (0)

Please check: IC50 for CC(=O)N(CC(Nc1ncc(-c2nnc(C(F)F)o2)cn1)c1ccc(F)cc1)CC(F)(F)F (single isomer, unassigned) [167(−)] , strictly under 30 nM or not? no (0)

Please check: IC50 for Fc1ccc(C(COCC(F)(F)F)Nc2ncc(-c3nnc(C(F)F)o3)cn2)cc1 (single isomer, unassigned) [162(−)] , strictly under 30 nM or not? no (0)

Please check: IC50 for FC(F)Oc1cccc(C2(Nc3ncc(-c4nnc(C(F)F)o4)cn3)CC2)c1Cl [Example 86] , strictly under 30 nM or not? yes (1)

Please check: IC50 for CS(=O)(=O)CC(Nc1ncc(-c2nnc(C(F)F)o2)cn1)c1ccc(F)cc1 (single isomer, unassigned) [161(−)] , strictly under 30 nM or not? no (0)

Please check: IC50 for FC(F)c1nnc(-c2cnc(NC3(c4ccc(OC(F)(F)F)cc4)CC3)nc2)o1 [Example 54] , strictly under 30 nM or not? yes (1)

Please check: IC50 for N#Cc1ccc(C2(Nc3ncc(-c4nnc(C(F)F)o4)cn3)CC2)cc1 [Example 48] , strictly under 30 nM or not? no (0)

Please check: IC50 for N#Cc1ccc(C2(Nc3ncc(-c4nnc(C(F)F)o4)cn3)CC2)cn1 [Example 25] , strictly under 30 nM or not? no (0)

Please check: IC50 for Fc1cc(F)cc(C2(Nc3ncc(-c4nnc(C(F)F)o4)cn3)CC2)c1 [Example 72] , strictly under 30 nM or not? no (0)

Please check: IC50 for COc1ccc(C2(Nc3ncc(-c4nnc(C(F)F)o4)cn3)CC2)cc1 [Example 44] , strictly under 30 nM or not? no (0)

Please check: IC50 for CS(=O)(=O)Nc1ccccc1CC(Nc1ncc(-c2nnc(C(F)F)o2)cn1)c1ccc(F)cc1 (stereo not shown) [Example 131] , strictly under 30 nM or not? no (0)

Please check: IC50 for O=C(C1CC1)N(CC(Nc1ncc(-c2nnc(C(F)F)o2)cn1)c1ccc(F)cc1)CC(F)(F)F (single isomer, unassigned) [170(−)] , strictly under 30 nM or not? no (0)

Please check: IC50 for O=S(=O)(NCC(Nc1ncc(-c2nnc(C(F)F)o2)cn1)c1ccc(F)cc1)C1CC1 (stereo not shown) [Example 110] , strictly under 30 nM or not? yes (1)

Please check: IC50 for O=C(NCC(Nc1ncc(-c2nnc(C(F)F)o2)cn1)c1ccc(F)cc1)C1CC1 (single isomer, unassigned) [168(+)] , strictly under 30 nM or not? yes (1)

Please check: IC50 for CN(CC(Nc1ncc(-c2nnc(C(F)F)o2)cn1)c1ccc(F)cc1)C(=O)C1CC1 (single isomer, unassigned) [169(−)] , strictly under 30 nM or not? no (0)

Please check: IC50 for CS(=O)(=O)NCC(Nc1ncc(-c2nnc(C(F)F)o2)cn1)c1ccc(F)c(F)c1 (single isomer, unassigned) [171(−)] , strictly under 30 nM or not? no (0)

Please check: IC50 for CCCC(Nc1ncc(-c2nnc(C(F)F)o2)cn1)c1ccc(F)cc1 (stereo not shown) [Example 23] , strictly under 30 nM or not? no (0)

Please check: IC50 for CS(=O)(=O)NCC(Nc1ncc(-c2nnc(C(F)F)o2)cn1)c1ccc(OC(F)(F)F)cc1 (single isomer, unassigned) [122(+)] , strictly under 30 nM or not? no (0)

Please check: IC50 for Cc1cccc(C2(Nc3ncc(-c4nnc(C(F)F)o4)cn3)CC2)c1Cl [Example 77] , strictly under 30 nM or not? yes (1)
